Measured max response accompanies every entry in the list below.
Procedure Details: Cell Viability qHTS for small molecule stabilizers of the endoplasmic reticulum resident proteome (AID 1508629);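 also: human SH-SY5Y neuroblastoma cells carrying the GLuc-SERCaMP reporter; compound exposure about 46 h in total before the viability read; % is scaled to controls: 0 for no effect and ±100 for the full control effect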
Experimental Context: cell viability counter-screen, 100 nM thapsigargin for final 4 h
Results filed as inconclusive are left out.
The reply should be a number in %, with the unit left off.

> print(dat)
               substance.smiles  display.unit  test.result
1  CCCC(=O)Nc1ccc(O)c(C(C)=O)c1             %         11.5
2               O=C(NO)c1ccccc1             %         2.69

Req: Return max response for the following molecule: C=CCNc1nc(NCC=C)nc(N2CCN(C(c3ccc(F)cc3)c3ccc(F)cc3)CC2)n1
Resp: 26.9

Req: Return max response for the following molecule: CCOC(=O)c1ccc(O)c(O)c1
Resp: 4.88

====

Procedure Details: qHTS of pediatric cancer cell lines to identify multiple opportunities for drug repurposing: Primary screen for Rh41 cells (AID 1347108);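 also: luminescence drop marks cytotoxic hits; nearly all actives have a fitted effect of over 70% in size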
Experimental Context: Rh41 rhabdomyosarcoma viability, CellTiter-Glo luminescence, 48 h; series mostly up to 46 µM
Inconclusive results are not listed. Active and inactive are the calls of the source. Calls come from the whole dose curve; as a rule, active = well fitted cell-killing curve with a large enough effect; inconclusive = small, poorly fitted or top-dose-only effect; inactive = no such curve, though single readings can be large or run the other way.
Answer with one of the outcomes given here: t = active, f = inactive

> print(dat)
                                   compound  assigned.category
1                      Cc1c(N)cccc1C(F)(F)F                  f
2                       O=C1Cc2cc(Cl)ccc2N1                  f
3   CC(=O)Nc1c(I)c(NC(C)=O)c(I)c(C(=O)O)c1I                  f
4  CCCCN(CCCC)C(C(N)=O)c1ccc(OC)cc1 (stereo not drawn)                  f
5              O=C1CC[C@H](C(=O)N2CCCCC2)N1                  f

Req: Hi team, can someone confirm the assay call for CC(C)Cc1ccc(C(C)C(=O)OCc2ccccn2)cc1 (stereo not drawn) ?
Resp: f

Req: Hi team, can someone confirm the assay call for CC1(C)OC(=O)Nc2ccc(Br)cc21 ?
Resp: f

Req: Hi team, can someone confirm the assay call for CCc1cc2cc(OC)c(OC)cc2c(Cc2ccccc2)n1 ?
Resp: f

Req: Hi team, can someone confirm the assay call for CCc1cc(S(=O)(=O)O)c2cc(C(C)C)cccc1-2 ?
Resp: f

====

Assay Target: Protein phosphatase 1D (Homo sapiens)
Procedure Details: Rhodamine-PBP qHTS Assay for Modulators of WT P53-Induced Phosphatase 1 (WIP1) (AID 1347425); also: % of control where 0% means no effect
Experimental Context: recombinant WIP1, Rhodamine-PBP phosphate fluorescence, real-time; series mostly up to 57.5 µM
Records with an inconclusive call do not appear. Activity calls are given as the source filed them. Calls come from the whole dose curve; as a rule, active = well fitted curve in the direction sought with a large enough effect; inconclusive = small, poorly fitted or top-dose-only effect, or another doubt; inactive = no such curve, though single readings can be large or run the other way.
Recorded Endpoint: activity change, negative = inhibition

# count of solved cases: 8
> print(dat)
                                   molecule  test.result
1                        C1N2CN3CN1CN(C2)C3     inactive
2  COc1ccc2c(c1)c(CC(=O)OC/C=C(\C)CC/C=C(\C)CCC=C(C)C)c(C)n2C(=O)c1ccc(Cl)cc1     inactive
3  Cc1cccc(OCC(O)CNC(C)(C)C)c1C (stereo not given)     inactive
4                        CCOC(=O)CN1CCCC1=O     inactive
5  CCCCCCOC(=O)NC(=N)c1ccc(NCc2nc3cc(C(=O)N(CCC(=O)OCC)c4ccccn4)ccc3n2C)cc1     inactive
6          CCOC(=O)N1CCC(Nc2ccc(Cl)cc2N)CC1     inactive
7  O=C(O)[C@H](O)[C@@H](O)[C@H](O[C@@H]1O[C@H](CO)[C@H](O)[C@H](O)[C@H]1O)[C@H](O)CO     inactive
8                          COC(=O)/C=C(/C)N     inactive

Req: Return activity change, negative = inhibition for the following molecule: CCOCCn1c(C2CCN(CCc3ccc(C(C)(C)C(=O)O)cc3)CC2)nc2ccccc21
Resp: inactive
